- assay.target: T1, gastrin releasing peptide receptor (GRP-R), human (human, UniProt P30550 1-384)
- T1 construct: whole, on cells; also called GRP receptor; GRP-preferring receptor
- T1 sequence (P30550 whole entry): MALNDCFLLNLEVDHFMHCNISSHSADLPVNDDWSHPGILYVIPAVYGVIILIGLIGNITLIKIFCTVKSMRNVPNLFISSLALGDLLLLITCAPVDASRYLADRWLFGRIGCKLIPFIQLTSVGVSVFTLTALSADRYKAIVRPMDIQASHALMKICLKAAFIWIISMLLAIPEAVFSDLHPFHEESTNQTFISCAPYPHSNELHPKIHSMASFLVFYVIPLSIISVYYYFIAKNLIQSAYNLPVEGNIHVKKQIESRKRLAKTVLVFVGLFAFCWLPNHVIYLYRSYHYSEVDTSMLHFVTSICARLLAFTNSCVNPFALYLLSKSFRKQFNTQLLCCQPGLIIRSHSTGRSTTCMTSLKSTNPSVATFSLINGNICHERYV
- method.summary: displacement of 125I-universal ligand, human tumour sections
recorded.endpoint: pIC50
The meaning of pIC50 here: minus log10 of the concentration in molar units.

// lookup pIC50 for QWAVGHLM (N-terminus: 175Lu complex of DO3A-monoamide-Gly-4-aminobenzoic acid; C-terminal amide) [^175Lu-L70]
9.10
